test system: IL-1β production in PMA-differentiated THP-1 cells; assay: IL-1β production in PMA-differentiated THP-1 cells stimulated with gramicidin (hTHP-1 assay, 2% fetal bovine serum; Procedures 1-3); assay type: cell-based, human; conditions: hTHP-1 assay containing 2% fetal bovine serum, Table B2, class symbols; read-out: IC50
pIC50: −log10 of the molar value.
EXPERIMENTAL READOUT: pIC50

Solved cases (8 shown):
CC(C)(O)c1cncc(S(N)(=O)=NC(=O)Nc2c3c(c(C#N)c4c2CCC4)CCC3)c1 (single isomer, unassigned) [Example 523] | 4.52 to 5.30
CN(C)Cc1ccc(S(N)(=O)=NC(=O)Nc2c3c(cc4c2CC4)CCC3)cc1 (single isomer, unassigned) [Example 580] | 6.00 to 6.70
CN[C@H]1COc2c(S(N)(=O)=NC(=O)Nc3c4c(cc5c3CCC5)CCC4)cnn2C1 (single isomer, unassigned) [Example 697] | 6.70 to 7.40
CC(C)(O)c1cnc(S(N)(=O)=NC(=O)Nc2c3c(cc4c2C(=O)CC4)CCC3)s1 (single isomer, unassigned) [Example 573] | 4.52 to 5.30
CC(C)n1nc(S(N)(=O)=NC(=O)Nc2c3c(c(C#N)c4c2CCC4)CCC3)cc1CO (single isomer, unassigned) [Example 549] | 4.52 to 5.30
CC(C)(O)c1cnc(S(N)(=O)=NC(=O)Nc2c3c(cc4c2CCC4=O)CCC3)s1 (stereo not shown) [Example 455] | 5.30 to 6.00
CC(O)(CO)c1ncc(S(N)(=O)=NC(=O)Nc2c3c(c(C#N)c4c2CCC4)CCC3)s1 (mixture of isomers) [Example 635] | 4.52 to 5.30
COCc1nc(C(C)(C)O)sc1S(N)(=O)=NC(=O)Nc1c2c(c(C#N)c3c1CCC3)CCC2 (stereo not shown) [Example 454] | 6.00 to 6.70

// query Need pIC50, item CC(OC(F)F)c1ccc(S(N)(=O)=NC(=O)Nc2c3c(cc4c2CCC4)CCC3)cc1 (single isomer, unassigned) [Example 640]
// result 5.30 to 6.00

// query How about this molecule: NS(=O)(=NC(=O)Nc1c2c(cc3c1CCC3)CCC2)c1ccc(C2CCCN2)cc1 (single isomer, unassigned) [Example 650]
// result 4.52 to 5.30

// query How about this molecule: CNCC(C)(C)c1ccc(S(N)(=O)=NC(=O)Nc2c3c(cc4c2CCC4)CCC3)cc1 (single isomer, unassigned) [Example 520]
// result 4.52 to 5.30

// query How about this molecule: CC(C)(O)c1cc(C#N)cc(S(N)(=O)=NC(=O)Nc2c3c(c(C#N)c4c2CCC4)CCC3)c1 (single isomer, unassigned) [Example 578]
// result 5.30 to 6.00

// query How about this molecule: CNCc1cc(F)c(S(N)(=O)=NC(=O)Nc2c3c(cc4c2CCC4)CCC3)s1 (single isomer, unassigned) [Example 571]
// result 6.00 to 6.70

// query How about this molecule: NS(=O)(=NC(=O)Nc1c2c(cc3c1CCC3)CCC2)c1cc2c(s1)COCC2 (single isomer, unassigned) [Example 694]
// result 4.52 to 5.30

// query How about this molecule: CC(O)(CO)c1ncc(S(N)(=O)=NC(=O)Nc2c3c(c(C#N)c4c2CCC4)CCC3)s1 (single isomer, unassigned) [Example 634]
// result 6.00 to 6.70

====

tested on: IL-1β production in PMA-differentiated THP-1 cells; experiment: IL-1β production in PMA-differentiated THP-1 cells stimulated with gramicidin (hTHP-1 assay, 2% fetal bovine serum; Procedures 1-3); type: cell-based, human; settings: hTHP-1 assay containing 2% fetal bovine serum, Table B2, class symbols; read-out: IC50
EXPERIMENTAL READOUT: IC50

CC(C)(O)c1cc(F)c(S(N)(=O)=NC(=O)Nc2c3c(cc4c2CC4)CCC3)s1 (single isomer, unassigned) [Example 433] | 200 to 1000 nM
CN(C)Cc1ccc([S@](N)(=O)=NC(=O)Nc2c3c(cc4c2CCC4)CCC3)cc1F (single isomer, unassigned) [Example 605] | 200 to 1000 nM
N=S(=O)(NC(=O)Nc1c2c(cc3c1CCC3)CCC2)c1nn(C(F)F)cc1F (single isomer, unassigned) [Example 711] | 1000 to 5000 nM

// query Need IC50, item N=S(=O)(NC(=O)Nc1c2c(cc3c1CCC3)CCC2)c1nn(C(F)F)cc1F (single isomer, unassigned) [Example 710]
// result 40 to 200 nM

// query How about this compound: NS(=O)(=NC(=O)Nc1c2c(cc3c1CCC3)CCC2)c1ccc(C2CCNC2)cc1F (single isomer, unassigned) [Example 624]
// result 200 to 1000 nM

// query How about this compound: CC(C)(O)c1csc(S(N)(=O)=NC(=O)Nc2c3c(cc4c2CC4)CCC3)c1 (single isomer, unassigned) [Example 561]
// result 200 to 1000 nM

// query How about this compound: CC(C)(O)c1ccnc(S(N)(=O)=NC(=O)Nc2c3c(c(C#N)c4c2CCC4)CCC3)c1 (stereo not shown) [Example 456]
// result 200 to 1000 nM

// query How about this compound: CNCc1cc(F)c(S(N)(=O)=NC(=O)Nc2c3c(cc4c2CCC4)CCC3)s1 (single isomer, unassigned) [Example 570]
// result 8 to 40 nM

====

tested on: IL-1β production in PMA-differentiated THP-1 cells; assay: IL-1β production in PMA-differentiated THP-1 cells stimulated with gramicidin (hTHP-1 assay, 2% fetal bovine serum; Procedures 1-3); type: cell-based, human; conditions: hTHP-1 assay containing 2% fetal bovine serum, Table B2, class symbols; read-out: IC50
EXPERIMENTAL READOUT: IC50

Solved cases (3 shown):
CC(C)(O)c1cncc(S(N)(=O)=NC(=O)Nc2c3c(c(C#N)c4c2CCC4)CCC3)c1 (single isomer, unassigned) [Example 522] | 200 to 1000 nM
NS(=O)(=NC(=O)Nc1c2c(cc3c1CCC3)CCC2)c1cnn2c1OC[C@H](O)C2 (single isomer, unassigned) [Example 516] | 1000 to 5000 nM
CC(C)(O)c1cc(S(N)(=O)=NC(=O)Nc2c3c(cc4c2CCC4)CCC3)sc1-c1ccccc1 (single isomer, unassigned) [Example 553] | 5000 to 30000 nM

// query Need IC50, item CC(C)(O)c1ncc(S(N)(=O)=NC(=O)Nc2c3c(c(Cl)c4c2CCC4)CCC3)s1 (single isomer, unassigned) [Example 597]
// result 40 to 200 nM

// query How about this molecule: CC(C)(O)c1ccc(S(N)(=O)=NC(=O)Nc2c3c(c(C#N)c4c2CCC4)CCC3)cn1 (single isomer, unassigned) [Example 545]
// result 40 to 200 nM

====

test system: IL-1β production in PMA-differentiated THP-1 cells; assay: IL-1β production in PMA-differentiated THP-1 cells stimulated with gramicidin (hTHP-1 assay, 2% fetal bovine serum; Procedures 1-3); type: cell-based, human; conditions: hTHP-1 assay containing 2% fetal bovine serum, Table B2, class symbols; read-out: IC50
Catalogue of compounds with associated IC50

Solved cases (6 shown):
CC(C)(O)c1csc([S@](N)(=O)=NC(=O)Nc2c3c(cc4c2C(=O)CC4)CCC3)c1 (single isomer, unassigned) | 40 to 200 nM
CC(O)(CO)c1cc(F)c(S(N)(=O)=NC(=O)Nc2c3c(c(C#N)c4c2CCC4)CCC3)s1 (stereo not shown) [Example 443] | 40 to 200 nM
C=CCc1c2c(c(NC(=O)N=S(N)(=O)c3cc(C(C)(C)O)n(-c4ccccc4)n3)c3c1CCC3)CCC2 (single isomer, unassigned) [Example 567] | 5000 to 30000 nM
NS(=O)(=NC(=O)Nc1c2c(cc3c1CCC3)CCC2)c1ccc(C2CCCN2)cc1 (stereo not shown) [Example 447] | 1000 to 5000 nM
CC(O)(CO)c1ncc(S(N)(=O)=NC(=O)Nc2c3c(c(C#N)c4c2CCC4)CCC3)s1 (stereo not shown) [Example 437] | 1000 to 5000 nM
CC(C)c1cc(S(N)(=O)=NC(=O)Nc2c3c(cc4c2CCC4)CCC3)c(F)cn1 (single isomer, unassigned) [Example 555] | 200 to 1000 nM

Let us examine a further case.
// query Need IC50, item CN(C)Cc1ccc(S(N)(=O)=NC(=O)Nc2c3c(cc4c2CC4)CC3)cc1 (single isomer, unassigned) [Example 582]
// result 200 to 1000 nM

====

tested on: IL-1β production in PMA-differentiated THP-1 cells; test: IL-1β production in PMA-differentiated THP-1 cells stimulated with gramicidin (hTHP-1 assay, 2% fetal bovine serum; Procedures 1-3); format: cell-based, human; details: hTHP-1 assay containing 2% fetal bovine serum, Table B2, class symbols; read-out: IC50
Catalogue of molecules with associated IC50

Solved cases (5 shown):
CN(C)Cc1ccc(S(N)(=O)=NC(=O)Nc2c3c(cc4c2CCC4)CCC3)cn1 (single isomer, unassigned) [Example 616] | 5 to 30 µM
CNCC1(c2ccc(S(N)(=O)=NC(=O)Nc3c4c(cc5c3CCC5)CCC4)c(F)c2)CC1 (single isomer, unassigned) [Example 528] | 0.2 to 1 µM
CNCC1(c2ccc(S(N)(=O)=NC(=O)Nc3c4c(cc5c3CCC5)CCC4)c(F)c2)CC1 (single isomer, unassigned) [Example 529] | 5 to 30 µM
CC(C)(O)c1nc(S(N)(=O)=NC(=O)Nc2c3c(cc4c2CCC4)CCC3)cs1 (single isomer, unassigned) [Example 556] | 5 to 30 µM
CNCc1csc(S(N)(=O)=NC(=O)Nc2c3c(cc4c2CCC4)CCC3)c1 (single isomer, unassigned) [Example 692] | 1 to 5 µM

// query Need IC50, item CC(C)(O)c1cnc(S(N)(=O)=NC(=O)Nc2c3c(cc4c2C(=O)CC4)CCC3)s1 (single isomer, unassigned) [Example 572]
// result 0.2 to 1 µM

// query How about this molecule: CN(C)Cc1cnc(S(N)(=O)=NC(=O)Nc2c3c(cc4c2CCC4)CCC3)c(F)c1 (single isomer, unassigned) [Example 518]
// result 1 to 5 µM

// query How about this molecule: CC(C)(O)c1cnc(S(N)(=O)=NC(=O)Nc2c3c(cc4c2CCC4O)CCC3)s1 (single isomer, unassigned) [Example 658]
// result 5 to 30 µM
